- test.target: NR2B site (Homo sapiens, UniProt Q05586+Q13224)
- Sequence (Q13224 27-1484, other chains not shown): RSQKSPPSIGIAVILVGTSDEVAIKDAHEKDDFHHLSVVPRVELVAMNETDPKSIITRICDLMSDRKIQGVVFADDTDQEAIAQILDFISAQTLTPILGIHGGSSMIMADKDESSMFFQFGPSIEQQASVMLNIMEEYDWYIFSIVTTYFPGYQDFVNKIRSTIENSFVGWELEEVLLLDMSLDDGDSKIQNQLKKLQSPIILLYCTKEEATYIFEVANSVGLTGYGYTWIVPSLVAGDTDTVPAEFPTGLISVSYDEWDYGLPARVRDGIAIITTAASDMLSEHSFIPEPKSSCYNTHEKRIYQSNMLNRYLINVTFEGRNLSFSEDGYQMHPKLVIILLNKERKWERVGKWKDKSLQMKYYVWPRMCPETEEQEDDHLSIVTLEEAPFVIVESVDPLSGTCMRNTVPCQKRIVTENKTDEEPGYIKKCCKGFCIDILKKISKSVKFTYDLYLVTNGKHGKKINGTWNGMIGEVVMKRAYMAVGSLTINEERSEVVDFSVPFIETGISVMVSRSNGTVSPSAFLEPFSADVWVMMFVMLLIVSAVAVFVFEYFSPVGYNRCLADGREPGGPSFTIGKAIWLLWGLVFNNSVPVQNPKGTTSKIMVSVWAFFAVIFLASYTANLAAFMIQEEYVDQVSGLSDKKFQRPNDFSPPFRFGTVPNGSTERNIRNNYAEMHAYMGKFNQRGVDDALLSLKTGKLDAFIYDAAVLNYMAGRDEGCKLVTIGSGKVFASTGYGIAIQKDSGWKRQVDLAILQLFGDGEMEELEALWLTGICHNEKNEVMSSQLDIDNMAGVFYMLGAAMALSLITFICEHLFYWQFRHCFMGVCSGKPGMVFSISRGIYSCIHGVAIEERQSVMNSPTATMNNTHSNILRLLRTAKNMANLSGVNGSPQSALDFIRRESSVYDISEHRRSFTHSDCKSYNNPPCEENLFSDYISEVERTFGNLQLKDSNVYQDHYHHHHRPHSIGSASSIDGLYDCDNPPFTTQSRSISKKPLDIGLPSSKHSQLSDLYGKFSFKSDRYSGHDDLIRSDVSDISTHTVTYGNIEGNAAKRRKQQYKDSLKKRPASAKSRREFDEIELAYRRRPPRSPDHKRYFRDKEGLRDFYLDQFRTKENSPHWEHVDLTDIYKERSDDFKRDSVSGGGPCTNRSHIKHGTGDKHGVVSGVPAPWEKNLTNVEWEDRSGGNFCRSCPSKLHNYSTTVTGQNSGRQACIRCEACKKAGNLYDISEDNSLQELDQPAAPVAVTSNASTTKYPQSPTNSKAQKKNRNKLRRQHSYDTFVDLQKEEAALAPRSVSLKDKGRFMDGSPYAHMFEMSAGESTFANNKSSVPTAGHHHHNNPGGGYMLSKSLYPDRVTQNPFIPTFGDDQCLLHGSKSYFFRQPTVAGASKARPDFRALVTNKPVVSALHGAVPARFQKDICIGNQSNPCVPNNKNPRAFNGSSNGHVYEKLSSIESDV
- assay.method.text: binding to the NR2B site (Ki, automatic and manual)
- experimental.parameters: automatic; read-out: Ki (nM), automatic
property: Ki (nM)

• COc1ccc2c(c1)CCN(CCCCc1ccc(SC)cc1)CC2O (stereo not drawn) = 20
• COc1ccc2c(c1)CCN(CCCCc1ccc(C)cc1)CC2O (stereo not drawn) = 31.3
• COc1ccc2c(c1)CCN(CCCCc1ccccc1)CC2O (stereo not drawn) [Compound 1, reference compound] = 43.5

---

- test.target: σ1 receptor (Homo sapiens, UniProt Q99720)
- Sequence (Q99720 whole entry): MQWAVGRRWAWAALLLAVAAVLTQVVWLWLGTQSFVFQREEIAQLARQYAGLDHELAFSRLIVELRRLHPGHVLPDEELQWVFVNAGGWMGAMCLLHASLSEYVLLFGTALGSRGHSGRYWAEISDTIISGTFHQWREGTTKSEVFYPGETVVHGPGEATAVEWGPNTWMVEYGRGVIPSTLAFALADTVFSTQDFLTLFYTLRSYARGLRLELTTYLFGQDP
- assay.method.text: σ1 receptor binding at 10 μM
Criterion: inhibition at 10 µM meeting or surpassing 70%. Met: criterion met. Not met: criterion not met.

* COc1ccc2c(c1)CCN(CCC#Cc1ccccn1)CC2O (stereo not shown) [Compound 7] | criterion not met
* COc1ccc2c(c1)CCN(CCC#Cc1cccc(F)n1)CC2O (stereo not shown) [Compound 8] | criterion not met
* COc1ccc2c(c1)CCN(CCCCc1ccc(Br)cc1)CC2O (stereo not shown) [Compound 5] | criterion met
* COc1ccc2c(c1)CCN(CCCCc1ccc(C)cc1)CC2O (stereo not shown) [Compound 4] | criterion met
* COc1ccc2c(c1)CCN(CCCCc1ccccc1)CC2O (stereo not shown) [Compound 1, reference compound] | criterion met
* COc1ccc2c(c1)CCN(CCCCc1ccc3ccccc3c1)CC2O (stereo not shown) [Compound 2] | criterion met
* COc1ccc2c(c1)CCN(CCCCc1ccc(F)cc1)CC2O (stereo not shown) [Compound 6] | criterion not met

---

Each entry below lists one item and its recorded Ki value.
- test.target: NR2B site (Homo sapiens, UniProt Q05586+Q13224)
- assay.method.text: binding to the NR2B site (Ki, automatic and manual)
- experimental.parameters: manual; read-out: Ki (nM), manual
property: Ki (nM)

- COc1ccc2c(c1)CCN(CCCCc1ccc(C)cc1)CC2O (centres unmarked): 4.9
- COc1ccc2c(c1)CCN(CCCCc1ccccc1)CC2O (centres unmarked) [Compound 1, reference compound]: 9.8

---

- test.target: σ2 receptor (Homo sapiens, UniProt Q5BJF2)
- Sequence (Q5BJF2 whole entry, species assumed): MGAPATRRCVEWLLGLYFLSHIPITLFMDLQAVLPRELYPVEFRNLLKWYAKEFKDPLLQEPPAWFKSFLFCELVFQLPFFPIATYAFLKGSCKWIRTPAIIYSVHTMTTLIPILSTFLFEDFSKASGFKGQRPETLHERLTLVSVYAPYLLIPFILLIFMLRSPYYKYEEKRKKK
- assay.method.text: σ2 receptor binding at 10 μM
- Procedure: All derivatives were evaluated for binding to the NR2B site and other neuro-targets. Table 1 provides the structures of the derivatives, molecular weight, calculated Log D values, the structure-activity relationship, and binding data.
Each entry below lists one item and its recorded inhibition at 10 µM value.
property: inhibition at 10 µM (%)

- COc1ccc2c(c1)CCN(CCC#Cc1ccccn1)CC2O (stereo not shown) [Compound 7]: 74.2
- COc1ccc2c(c1)CCN(CCCCc1ccc(Br)cc1)CC2O (stereo not shown) [Compound 5]: 90
- COc1ccc2c(c1)CCN(CCCCc1ccc(F)cc1)CC2O (stereo not shown) [Compound 6]: 76.9
- COc1ccc(CCCCN2CCc3cc(OC)ccc3C(O)C2)cc1 (stereo not shown) [Compound 3]: 91.4
- COc1ccc2c(c1)CCN(CCCCc1ccccc1)CC2O (stereo not shown) [Compound 1, reference compound]: 87.8
- COc1ccc2c(c1)CCN(CCCCc1ccc(C)cc1)CC2O (stereo not shown) [Compound 4]: 90.7
- COc1ccc2c(c1)CCN(CCC#Cc1cccc(F)n1)CC2O (stereo not shown) [Compound 8]: 56.4
